Molecular target: Peroxisome proliferator-activated receptor gamma (Homo sapiens)
Sequence (P37231 whole entry): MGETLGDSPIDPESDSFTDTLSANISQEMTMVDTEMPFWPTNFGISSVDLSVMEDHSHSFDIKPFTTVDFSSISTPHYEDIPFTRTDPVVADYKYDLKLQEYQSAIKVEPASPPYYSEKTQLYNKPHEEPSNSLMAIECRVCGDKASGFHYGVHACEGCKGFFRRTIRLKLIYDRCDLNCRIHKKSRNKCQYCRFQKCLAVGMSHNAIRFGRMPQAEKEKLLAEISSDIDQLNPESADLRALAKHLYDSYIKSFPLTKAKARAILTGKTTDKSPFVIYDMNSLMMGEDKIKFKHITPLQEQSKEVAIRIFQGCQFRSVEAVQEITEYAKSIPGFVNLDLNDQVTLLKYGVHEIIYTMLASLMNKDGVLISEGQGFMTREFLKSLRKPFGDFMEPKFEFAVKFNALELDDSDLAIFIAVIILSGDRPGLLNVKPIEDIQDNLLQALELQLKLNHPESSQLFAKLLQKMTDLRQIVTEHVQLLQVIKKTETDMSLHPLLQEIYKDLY
Listed next: entries and their corresponding EC50.
Test Readout: EC50 (nM)

INSERT INTO results (molecular_string, tested_system, test_readout, measurement_units, data_value) VALUES
  ('CCOc1c(\C(C)=C/C=C/C(C)=C/C(=O)O)cc(C(F)(F)C(F)(F)F)cc1C(C)C', 'Peroxisome proliferator-activated receptor gamma (Homo sapiens)', 'EC50', 'nM', 99),
  ('CCCCOc1c(\C(C)=C(F)/C=C/C(C)=C/C(=O)O)cc(C(C)C)cc1C(C)C', 'Peroxisome proliferator-activated receptor gamma (Homo sapiens)', 'EC50', 'nM', 47),
  ('C/C(=C/C=C/C(C)=C/C(=O)O)c1cc(-c2ccco2)cc(C(C)C)c1OCC(F)F', 'Peroxisome proliferator-activated receptor gamma (Homo sapiens)', 'EC50', 'nM', 37);

---

Biological target: Peroxisome proliferator-activated receptor gamma (Homo sapiens, UniProt P37231)
Test Readout: log10 EC50 (log10 of the value in nM)

INSERT INTO assay_data (compound, data_value) VALUES
  ('CC(/C=C/C(F)=C(/C)c1cc(C(C)(C)C)cc(C(C)(C)C)c1OCC(F)(F)F)=C\C(=O)O', 1.09),
  ('CCCOc1c(\C(C)=C/C=C/C(C)=C/C(=O)O)cc(C(F)(F)C(F)(F)F)cc1C(C)C', 0.43),
  ('CCCCOc1c(\C(C)=C(F)/C=C/C(C)=C/C(=O)O)cc(C(C)C)cc1C(C)C', 0.61),
  ('CCCCOc1c(\C(C)=C/C=C/C(C)=C/C(=O)O)cc(C(F)(F)C(F)(F)F)cc1C(C)C', 0.87),
  ('C/C(=C/C=C/C(C)=C/C(=O)O)c1cc(-c2ccc(F)cc2)cc(C(C)C)c1OCC(F)F', 0.11),
  ('C/C(=C/C=C/C(C)=C/C(=O)O)c1cc(-c2cccs2)cc(C(C)C)c1OCC(F)F', 0.67),
  ('CCOc1c(\C(C)=C/C=C/C(C)=C/C(=O)O)cc(C(F)(F)C(F)(F)F)cc1C(C)C', -0.15),
  ('C/C(=C/C=C/C(C)=C/C(=O)O)c1cc(-c2ccccc2F)cc(C(C)C)c1OCC(F)F', -0.40),
  ('C/C(=C/C=C/C(C)=C/C(=O)O)c1cc(-c2cccc(F)c2)cc(C(C)C)c1OCC(F)F', -0.10),
  ('C/C(=C/C=C/C(C)=C/C(=O)O)c1cc(-c2cc(F)cc(F)c2)cc(C(C)C)c1OCC(F)F', 0.43),
  ('CCCOc1c(\C(C)=C/C=C/C(C)=C/C(=O)O)cc(C(C)C)cc1C(F)(F)C(F)(F)F', 1.18),
  ('C/C(=C/C=C/C(C)=C/C(=O)O)c1cc(-c2ccco2)cc(C(C)C)c1OCC(F)F', 0.87),
  ('CC(/C=C/[C@@H]1C[C@]1(C)c1ccc2c(c1)C(C)(C)CCC2(C)C)=C\C(=O)O [IRX-4204]', 0.93),
  ('CCC(C)(C)c1cc(\C(C)=C(F)/C=C/C(C)=C/C(=O)O)c(OCC(F)F)c(C(C)(C)CC)c1', 0.43),
  ('C/C(=C/C=C/C(C)=C/C(=O)O)c1cc(C(C)C)cc(-c2ccccc2)c1OCC(F)F', 1.21),
  ('CC(/C=C/C(F)=C(/C)c1cc(C(C)(C)C)cc(C(C)(C)C)c1OCC(F)F)=C\C(=O)O', 0.81);

---

Target: Retinoic acid receptor gamma (Homo sapiens, UniProt P13631)
Sequence (P13631 whole entry): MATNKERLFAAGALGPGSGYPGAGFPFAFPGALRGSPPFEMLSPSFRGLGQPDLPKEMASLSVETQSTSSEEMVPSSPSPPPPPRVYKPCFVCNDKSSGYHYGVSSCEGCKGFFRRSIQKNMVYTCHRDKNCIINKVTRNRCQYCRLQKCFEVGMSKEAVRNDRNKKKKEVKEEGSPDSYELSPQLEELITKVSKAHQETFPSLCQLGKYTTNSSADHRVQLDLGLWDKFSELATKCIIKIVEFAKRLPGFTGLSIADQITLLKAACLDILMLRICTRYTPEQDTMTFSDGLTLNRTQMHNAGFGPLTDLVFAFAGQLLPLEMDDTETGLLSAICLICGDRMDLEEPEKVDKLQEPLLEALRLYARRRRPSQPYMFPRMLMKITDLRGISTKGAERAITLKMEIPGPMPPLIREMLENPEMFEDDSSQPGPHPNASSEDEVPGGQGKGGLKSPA
Assay: Displacement of [3H]ATRA from RAR gamma receptor in CV-1 cells; […]
Type: cell-based, Cercopithecidae
Test Readout: Ki

INSERT INTO results (molecular_string, test_readout, data_value) VALUES
  ('C/C(=C/C=C/C(C)=C/C(=O)O)c1cc(-c2ccco2)cc(C(C)C)c1OCC(F)F', 'Ki', '> 10 µM');

---

Target: Retinoic acid receptor alpha (Homo sapiens)
Sequence (P10276 whole entry): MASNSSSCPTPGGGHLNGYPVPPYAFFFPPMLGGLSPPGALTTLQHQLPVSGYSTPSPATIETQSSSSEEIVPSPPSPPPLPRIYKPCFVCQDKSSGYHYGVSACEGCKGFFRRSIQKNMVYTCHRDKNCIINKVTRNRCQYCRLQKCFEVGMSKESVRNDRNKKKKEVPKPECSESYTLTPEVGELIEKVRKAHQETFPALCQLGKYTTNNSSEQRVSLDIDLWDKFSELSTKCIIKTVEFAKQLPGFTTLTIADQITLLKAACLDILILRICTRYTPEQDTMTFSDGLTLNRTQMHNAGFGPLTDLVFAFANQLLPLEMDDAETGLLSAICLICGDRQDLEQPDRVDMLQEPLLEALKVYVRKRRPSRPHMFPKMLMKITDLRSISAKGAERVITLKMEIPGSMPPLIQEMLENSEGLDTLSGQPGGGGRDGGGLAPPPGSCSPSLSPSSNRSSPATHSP
Experiment: Binding affinity against RAR alpha receptor using [3H]ATRA as radioligand in CV-1 cells
Format: cell-based, Cercopithecidae
Test Readout: Ki (µM)

INSERT INTO assay_data (molecular_string, tested_system, op, data_value) VALUES
  ('C/C(=C/C=C/C(C)=C/C(=O)O)c1cc(C(C)(C)C)cc(C(C)(C)C)c1OCC(F)F', 'Retinoic acid receptor alpha (Homo sapiens)', '=', 0.054),
  ('CCCOc1c(\C(C)=C/C=C/C(C)=C/C(=O)O)cc(C(C)C)cc1C(F)(F)C(F)(F)F', 'Retinoic acid receptor alpha (Homo sapiens)', '>', 10),
  ('CCCCOc1c(\C(C)=C/C=C/C(C)=C/C(=O)O)cc(C(F)(F)C(F)(F)F)cc1C(C)C', 'Retinoic acid receptor alpha (Homo sapiens)', '=', 2.75),
  ('C/C(=C/C=C/C(C)=C/C(=O)O)c1cc(-c2cccc(F)c2)cc(C(C)C)c1OCC(F)F', 'Retinoic acid receptor alpha (Homo sapiens)', '>', 10),
  ('CC(/C=C/C(F)=C(/C)c1cc(C(C)(C)C)cc(C(C)(C)C)c1OCC(F)(F)F)=C\C(=O)O', 'Retinoic acid receptor alpha (Homo sapiens)', '=', 4.66);

---

Experiment: Tmax value in IRC mice
Format: ADME, organism-based
Details: mouse, in vivo
Test Readout: Tmax (h)

INSERT INTO results (molecular_string, test_readout, measurement_units, data_value) VALUES
  ('C/C(=C/C=C/C(C)=C/C(=O)O)c1cc(C(C)(C)C)cc(C(C)(C)C)c1OCC(F)F', 'Tmax', 'h', 1),
  ('C/C(=C/C=C/C(C)=C/C(=O)O)c1cc(-c2ccccc2F)cc(C(C)C)c1OCC(F)F', 'Tmax', 'h', 1),
  ('CC(/C=C/C(F)=C(/C)c1cc(C(C)(C)C)cc(C(C)(C)C)c1OCC(F)F)=C\C(=O)O', 'Tmax', 'h', 3),
  ('CCOc1c(\C(C)=C/C=C/C(C)=C/C(=O)O)cc(C(F)(F)C(F)(F)F)cc1C(C)C', 'Tmax', 'h', 1);

---

Biological target: Retinoic acid receptor RXR-alpha (Homo sapiens)
Sequence (P19793 whole entry): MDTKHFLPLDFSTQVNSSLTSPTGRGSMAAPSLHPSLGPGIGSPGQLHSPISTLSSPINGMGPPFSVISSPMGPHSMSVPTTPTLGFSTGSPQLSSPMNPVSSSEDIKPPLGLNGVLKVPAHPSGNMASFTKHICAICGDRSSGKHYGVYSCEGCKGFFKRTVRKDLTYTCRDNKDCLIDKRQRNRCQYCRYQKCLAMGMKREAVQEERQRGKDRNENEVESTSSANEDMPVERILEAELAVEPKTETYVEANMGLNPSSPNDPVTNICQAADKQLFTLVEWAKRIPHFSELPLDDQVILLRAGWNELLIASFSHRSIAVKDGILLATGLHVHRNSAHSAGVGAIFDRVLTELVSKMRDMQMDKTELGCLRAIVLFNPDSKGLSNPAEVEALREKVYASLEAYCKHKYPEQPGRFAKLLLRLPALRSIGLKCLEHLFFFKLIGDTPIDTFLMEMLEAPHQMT
Experiment: In vitro agonistic activity against RXR alpha in CV-1 cells
pEC50: −log10 of the molar value.
Test Readout: pEC50

INSERT INTO assay_data (molecular_string, test_readout, data_value) VALUES
  ('CCOc1c(\C(C)=C/C=C/C(C)=C/C(=O)O)cc(C(F)(F)C(F)(F)F)cc1C(C)C', 'pEC50', 7.04);

---

Biological target: Retinoic acid receptor RXR-beta (Homo sapiens, UniProt P28702)
Sequence (P28702 whole entry): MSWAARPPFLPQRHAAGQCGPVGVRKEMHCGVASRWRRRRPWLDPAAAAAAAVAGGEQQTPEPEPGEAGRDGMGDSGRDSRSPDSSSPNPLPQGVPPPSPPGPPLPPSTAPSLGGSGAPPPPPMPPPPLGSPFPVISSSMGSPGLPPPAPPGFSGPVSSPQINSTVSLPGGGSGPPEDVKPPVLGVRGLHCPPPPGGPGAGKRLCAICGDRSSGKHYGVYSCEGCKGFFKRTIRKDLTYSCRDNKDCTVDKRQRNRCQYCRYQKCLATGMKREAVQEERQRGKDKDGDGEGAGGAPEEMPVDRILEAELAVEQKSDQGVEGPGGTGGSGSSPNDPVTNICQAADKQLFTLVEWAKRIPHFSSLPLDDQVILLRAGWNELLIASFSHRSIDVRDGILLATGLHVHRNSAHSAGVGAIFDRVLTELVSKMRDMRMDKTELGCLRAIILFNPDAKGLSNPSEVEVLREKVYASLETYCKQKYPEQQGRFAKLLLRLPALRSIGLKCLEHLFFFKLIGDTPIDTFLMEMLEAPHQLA
Assay: Displacement of [3H]9-cis-RA from RXR beta receptor in CV-1 cells
pKi: −log10 of the molar value.
Test Readout: pKi

INSERT INTO assay_data (molecular_string, tested_system, data_value) VALUES
  ('C/C(=C/C=C/C(C)=C/C(=O)O)c1cc(-c2cccs2)cc(C(C)C)c1OCC(F)F', 'Retinoic acid receptor RXR-beta (Homo sapiens, UniProt P28702)', 8.41),
  ('CCCOc1c(\C(C)=C/C=C/C(C)=C/C(=O)O)cc(C(C)C)cc1C(F)(F)C(F)(F)F', 'Retinoic acid receptor RXR-beta (Homo sapiens, UniProt P28702)', 8.00),
  ('CCOc1c(\C(C)=C/C=C/C(C)=C/C(=O)O)cc(C(F)(F)C(F)(F)F)cc1C(C)C', 'Retinoic acid receptor RXR-beta (Homo sapiens, UniProt P28702)', 8.07),
  ('C/C(=C/C=C/C(C)=C/C(=O)O)c1cc(-c2ccccc2F)cc(C(C)C)c1OCC(F)F', 'Retinoic acid receptor RXR-beta (Homo sapiens, UniProt P28702)', 7.80),
  ('CC(/C=C/C(F)=C(/C)c1cc(C(C)(C)C)cc(C(C)(C)C)c1OCC(F)F)=C\C(=O)O', 'Retinoic acid receptor RXR-beta (Homo sapiens, UniProt P28702)', 7.94);
